System: DU-145
Assay name: Anticancer activity against human DU145 cells assessed as growth inhibition at 50 uM after 48 hrs by SRB assay
Type: functional
Measurement parameters: DU-145, 48 h, read-out: GI
Threshold check on inhibition of growth at 50 µM: at or above 90% gives Y, strictly below gives N.

Molecule	Label
COC(=O)[C@]1(C)[C@@H]2CC[C@]3(C)[C@H](CC=C4[C@@H]5[C@@H](C)[C@H](C)CC[C@]5(C)CC[C@]43C)[C@@]2(C)CC[C@@H]1O	N

Ask: Confirm if inhibition of growth at 50 µM reported for the molecule `C[C@H]1[C@H](C)CC[C@]2(C)CC[C@]3(C)C(=CC(=O)[C@@H]4[C@@]5(C)CC[C@H](O)[C@](C)(C(=O)O)[C@@H]5CC[C@]43C)[C@H]12` is 90% or above.
Reply: N

Ask: Confirm if inhibition of growth at 50 µM reported for the molecule `COC(=O)[C@@]1(C)C(=O)CC[C@]2(C)[C@H]3C(=O)C=C4[C@@H]5[C@@H](C)[C@H](C)CC[C@]5(C)CC[C@@]4(C)[C@]3(C)CC[C@@H]12` is 90% or above.
Reply: N

Ask: Confirm if inhibition of growth at 50 µM reported for the molecule `CC(=O)O[C@@H]1CC[C@@]2(C)[C@@H](CC[C@]3(C)[C@@H]2CC=C2[C@@H]4[C@@H](C)[C@H](C)CC[C@]4(C)CC[C@]23C)[C@@]1(C)C(=O)O` is 90% or above.
Reply: N

Ask: Confirm if inhibition of growth at 50 µM reported for the molecule `C[C@H]1[C@H](C)CC[C@]2(C)CC[C@]3(C)C(=CC[C@@H]4[C@@]5(C)CC[C@@H](OC(=O)CCC(=O)O)[C@](C)(C(=O)O)[C@@H]5CC[C@]43C)[C@H]12` is 90% or above.
Reply: Y

Ask: Confirm if inhibition of growth at 50 µM reported for the molecule CO[C@@]12[C@H](COC(N)=O)C3=C(C(=O)C(C)=C(N)C3=O)N1C[C@@H]1N[C@@H]12 [MITOMYCIN] is 90% or above.
Reply: N

###

Test system: HL-60
Assay name: Induction of autophagy in p53-deficient human HL60 cells at 50 uM after 6 hrs by acridine orange staining
Assay type: functional, cell-based
The source made the active and inactive calls. The calls are words filed in the database; no cut-off is given here.
Reported metric: Activity

>>> df
                            chemical_smiles    result
0  CCC(=O)O[C@H]1CC[C@@]2(C)[C@@H](CC[C@]3(C)[C@@H]2CC=C2[C@@H]4[C@@H](C)[C@H](C)CC[C@]4(C)CC[C@]23C)[C@@]1(C)C(=O)O  inactive
1  CCCC(=O)O[C@@H]1CC[C@@]2(C)[C@@H](CC[C@]3(C)[C@@H]2CC=C2[C@@H]4[C@@H](C)[C@H](C)CC[C@]4(C)CC[C@]23C)[C@@]1(C)C(=O)O  inactive
2  CCC(=O)O[C@@H]1CC[C@@]2(C)[C@@H](CC[C@]3(C)[C@@H]2CC=C2[C@@H]4[C@@H](C)[C@H](C)CC[C@]4(C)CC[C@]23C)[C@@]1(C)C(=O)O  inactive

###

Consider the following compounds and their measured inhibition of growth at 50 µM readings.
Tested on: HT-29
Assay name: Anticancer activity against human HT-29 cells assessed as growth inhibition at 50 uM after 48 hrs by SRB assay
Type: functional
Measurement parameters: HT-29, 48 h, read-out: GI
I only need the number, in %, no unit after it.

Ask: Identify measured inhibition of growth at 50 µM corresponding to `CCC(=O)O[C@@H]1CC[C@@]2(C)[C@@H](CC[C@]3(C)[C@@H]2C(=O)C=C2[C@@H]4[C@@H](C)[C@H](C)CC[C@]4(C)CC[C@]23C)[C@@]1(C)C(=O)O`
Reply: 89

Ask: Identify measured inhibition of growth at 50 µM corresponding to `CO[C@@]12[C@H](COC(N)=O)C3=C(C(=O)C(C)=C(N)C3=O)N1C[C@@H]1N[C@@H]12`
Reply: 60

Ask: Identify measured inhibition of growth at 50 µM corresponding to `CCCC(=O)O[C@H]1CC[C@@]2(C)[C@@H](CC[C@]3(C)[C@@H]2CC=C2[C@@H]4[C@@H](C)[C@H](C)CC[C@]4(C)CC[C@]23C)[C@@]1(C)C(=O)O`
Reply: 57

Ask: Identify measured inhibition of growth at 50 µM corresponding to `CCCC(=O)O[C@@H]1CC[C@@]2(C)[C@@H](CC[C@]3(C)[C@@H]2C(=O)C=C2[C@@H]4[C@@H](C)[C@H](C)CC[C@]4(C)CC[C@]23C)[C@@]1(C)C(=O)O`
Reply: 96

Ask: Identify measured inhibition of growth at 50 µM corresponding to `C[C@H]1[C@H](C)CC[C@]2(C)CC[C@]3(C)C(=CC(=O)[C@@H]4[C@@]5(C)CC[C@@H](OC(=O)CCC(=O)O)[C@](C)(C(=O)O)[C@@H]5CC[C@]43C)[C@H]12`
Reply: 5

Ask: Identify measured inhibition of growth at 50 µM corresponding to `COC(=O)[C@]1(C)[C@@H]2CC[C@]3(C)[C@H](C(=O)C=C4[C@@H]5[C@@H](C)[C@H](C)CC[C@]5(C)CC[C@]43C)[C@@]2(C)CC[C@@H]1O`
Reply: 8

Ask: Identify measured inhibition of growth at 50 µM corresponding to `CCC(=O)O[C@H]1CC[C@@]2(C)[C@@H](CC[C@]3(C)[C@@H]2CC=C2[C@@H]4[C@@H](C)[C@H](C)CC[C@]4(C)CC[C@]23C)[C@@]1(C)C(=O)O`
Reply: 92

###

Consider the following molecules and their measured inhibition of growth at 50 µM readings.
Tested on: HT-29
Assay name: Anticancer activity against human HT-29 cells assessed as growth inhibition at 50 uM after 48 hrs by SRB assay
Format: functional
Measurement parameters: HT-29, 48 h, read-out: GI
Remember to put the unit after the number in your answer.

Ask: Output reported inhibition of growth at 50 µM of the molecule `CCC(=O)O[C@H]1CC[C@@]2(C)[C@@H](CC[C@]3(C)[C@@H]2C(=O)C=C2[C@@H]4[C@@H](C)[C@H](C)CC[C@]4(C)CC[C@]23C)[C@@]1(C)C(=O)O` on HT-29.
Reply: 64%

###

Tested on: HL-60
Assay name: Induction of autophagy in p53-deficient human HL60 cells at 50 uM after 6 hrs by acridine orange staining
Type: functional, cell-based
Activity calls are given as the source filed them. No cut-off for these calls is given here.
Reported metric: Activity

>>> print(df.to_string())
                            chemical_smiles  target_or_test_system  reported_metric    result
0  C[C@H]1[C@H](C)CC[C@]2(C)CC[C@]3(C)C(=CC[C@@H]4[C@@]5(C)CC[C@@H](O)[C@](C)(C(=O)O)[C@@H]5CC[C@]43C)[C@H]12                  HL-60         Activity  inactive
1  CCC(=O)O[C@@H]1CC[C@@]2(C)[C@@H](CC[C@]3(C)[C@@H]2C(=O)C=C2[C@@H]4[C@@H](C)[C@H](C)CC[C@]4(C)CC[C@]23C)[C@@]1(C)C(=O)O                  HL-60         Activity  inactive
2  CCCC(=O)O[C@@H]1CC[C@@]2(C)[C@@H](CC[C@]3(C)[C@@H]2C(=O)C=C2[C@@H]4[C@@H](C)[C@H](C)CC[C@]4(C)CC[C@]23C)[C@@]1(C)C(=O)O                  HL-60         Activity  inactive

###

Tested on: HEp-2
Assay name: Anticancer activity against human Hep2 cells assessed as growth inhibition at 50 uM after 48 hrs by SRB assay
Type: functional
Measurement parameters: HEp-2, 48 h, read-out: GI
Threshold check on inhibition of growth at 50 µM: at or above 70% gives true (1), strictly below gives false (0).

Chemical smiles	Label
CC(=O)O[C@@H]1CC[C@@]2(C)[C@@H](CC[C@]3(C)[C@@H]2CC=C2[C@@H]4[C@@H](C)[C@H](C)CC[C@]4(C)CC[C@]23C)[C@@]1(C)C(=O)O	true (1)
CC(=O)O[C@H]1CC[C@@]2(C)[C@@H](CC[C@]3(C)[C@@H]2C(=O)C=C2[C@@H]4[C@@H](C)[C@H](C)CC[C@]4(C)CC[C@]23C)[C@@]1(C)C(=O)O	false (0)
C[C@H]1[C@H](C)CC[C@]2(C)CC[C@]3(C)C(=CC(=O)[C@@H]4[C@@]5(C)CC[C@H](OC(=O)CCC(=O)O)[C@](C)(C(=O)O)[C@@H]5CC[C@]43C)[C@H]12	false (0)
CCCC(=O)O[C@@H]1CC[C@@]2(C)[C@@H](CC[C@]3(C)[C@@H]2C(=O)C=C2[C@@H]4[C@@H](C)[C@H](C)CC[C@]4(C)CC[C@]23C)[C@@]1(C)C(=O)O	true (1)
C[C@H]1[C@H](C)CC[C@]2(C)CC[C@]3(C)C(=CC(=O)[C@@H]4[C@@]5(C)CC[C@H](O)[C@](C)(C(=O)O)[C@@H]5CC[C@]43C)[C@H]12	false (0)

Alright, here's another compound for you.
Ask: Confirm if inhibition of growth at 50 µM reported for the compound `CC(=O)O[C@H]1CC[C@@]2(C)[C@@H](CC[C@]3(C)[C@@H]2CC=C2[C@@H]4[C@@H](C)[C@H](C)CC[C@]4(C)CC[C@]23C)[C@@]1(C)C(=O)O` is 70% or above.
Reply: false (0)

FYI, the data here is from ChEMBL document CHEMBL1932969.
